Tested on: HL-60(TB) leukemia
assay.overview: NCI-60 one-dose screen, 48 h (100 = growth as untreated, 0 = no growth, -100 = all killed)
condition.set: 10 µM unless noted
Compounds without any hit were thinned out: in the full panel of roughly 83,000, 20% have a hit.
Please go through the items and note down their growth.
Answers are plain numbers, in %.

Please supply growth for each of the following items, keeping them in order.
1. CCCCCCCC/C=C/CCCCCCCC1=NC(C)(C)CN1c1ccccc1
2. COC(=O)[C@]1(C)CCC[C@]2(C)c3ccc(C(C)C)cc3C(=O)[C@@H](Br)[C@@H]12
3. COc1ccc(/C(C#N)=C/c2nc3c(N4CCOCC4)nc(Cl)nc3n2C)cc1OC

1: 70; 2: 68.1; 3: -28

Please supply growth for each of the following items, keeping them in order.
1. CC(C)(C)n1cc(-c2ccnc(NCCNS(=O)(=O)c3ccc(C(F)(F)F)cc3)c2)c(-c2ccccc2)n1
2. S=c1[nH]c(=S)c2c(-c3ccccc3)c(-c3ccccc3)oc2[nH]1

1: 83.9; 2: 94.9

----------
System: HL-60(TB) leukemia
assay.overview: NCI-60 one-dose screen, 48 h
condition.set: 10 µM unless noted
About 83,000 compounds went through this panel and 20% of them were active in at least one assay; those are over-represented in the sample as a whole. The source made the active and inactive calls. Rule for the calls: active = growth percent below 10; inactive = the rest.
Pick one: true = active, false = inactive

> print(dat)
                                   compound  category
1        CN(C)c1ccc2c(c1)/C(=N/O)c1ccccc1-2     false
2  Clc1ccc2c(NCCNc3nc(Cl)nc4ccccc34)ccnc2c1      true
3  CN1CCN(CCCOC(=O)c2c3c(n4ccccc24)C(=O)c2ncccc2C3=O)CC1     false
4  O=S(=O)(NCCCNc1nccc(-c2c(-c3ccc(F)c(O)c3)nc3sccn23)n1)c1ccc(Cl)cc1     false
5  C#CCOc1cccc(Nc2c(Cl)c(CCl)nc3ccc(Oc4ccccc4)cc23)c1     false
6             CC(C)=C(NC(=O)c1ccccc1)C(=O)O     false

For CC1(c2ccccc2Cl)NC(=O)NC1=O (centres undefined) , what call appears in the results of this test?
false

For "CCCCNC(=O)Oc1ccc(/C(=C(/C)Cc2ccc(OC)cc2)c2ccc(OCCN3CCCCCC3)cc2)cc1" , what call appears in the results of this test?
false

For "COc1ccc(C(=O)NC(=O)Nc2ccc3c(c2)NC(=O)/C3=C\c2[nH]c(C)c(C(=O)O)c2C)c(F)c1" , what call appears in the results of this test?
false

For "O=C1c2c(c3c4cccc(F)c4[nH]c3c3ccc4ccccc4c23)C(=O)N1O" , what call appears in the results of this test?
false

For "Cc1ccc(-n2c3c(c(-c4ccccc4)c2-c2ccccc2)C2=NCCN2C=N3)cc1" , what call appears in the results of this test?
false

For "CC(C)N1C(=O)S/C(=C2/SC(=O)N(C(C)C)C2=O)C1=O" , what call appears in the results of this test?
false

For "CN(C)CCCN1c2ccccc2Sc2ccc(C(F)(F)F)cc21" , what call appears in the results of this test?
true

For O=C1NC(Cc2c[nH]c3ccccc23)C(=O)N1Cc1ccc(Cl)cc1 (centres undefined) , what call appears in the results of this test?
false

For "CCN(CC)CCSCCCNc1c(C)cnc2cc(Cl)ccc12" , what call appears in the results of this test?
false

For COc1cc2c3cc1Oc1c(OC)c(OC)cc4c1C(Cc1ccc(O)c(c1)Oc1ccc(cc1)CC3N(C)CC2)N(C)CC4 (centres undefined) , what call appears in the results of this test?
true

For O=C1C2=C(Nc3cc(Cl)ccc3N2)OC1c1c[nH]c2ccc(COc3ccccc3)cc12 (centres undefined) , what call appears in the results of this test?
false

For "CCOc1cc(C(C)(C)C)ccc1C1=N[C@H](c2ccc(Cl)cc2)[C@H](c2ccc(Cl)cc2)N1C(=O)N1CCN(CC#Cc2cccc3c2CN([C@@H]2CCC(=O)NC2=O)C3=O)CC1" , what call appears in the results of this test?
true

For "C=C1C(=O)O[C@H]2[C@H]1CC/C(COC(=O)NCc1nc3ccccc3[nH]1)=C\CC[C@@]1(C)O[C@@H]21" , what call appears in the results of this test?
false

----------
Please go through the items and note down their growth.
Tested on: SK-MEL-28 melanoma
assay.overview: NCI-60 one-dose screen, 48 h (100 = growth as untreated, 0 = no growth, -100 = all killed)
condition.set: 10 µM unless noted
The panel holds about 83,000 compounds, 20% with a hit somewhere; the sample as a whole holds those more often.
Numbers only, in %.

Illustrative cases are given below, each with its answer.
> print(dat)
                                   compound  measured.parameter  experimental.value
1  CC(=O)OC1CCC2(C)C(=CCC3C4CC(CN5CC5)C(=O)C4(C)CCC32)C1 (stereo unspecified)              growth                97.9
2  CC1(C)N=C(N)N=C(N)N1c1ccc(OCCCCNC(=O)Nc2cccc(S(=O)(=O)F)c2)c(Cl)c1              growth                60.3
3  COc1cc(N(CCCl)CCCl)ccc1C=Nc1ccccc1C(=O)O              growth                94.3
4  CCC(/C=C(C)/C=C/C(=O)c1c(O)c(-c2ccc(O)cc2)c[nH]c1=O)CO (stereo unspecified)              growth                 105
5     C[CH2][Pb]([CH2]C)([CH2]C)[O]C(=O)COC              growth                18.2

Now consider a different compound.
Reported growth ( CC1(CF)NC(=O)NC1=O (stereo unspecified) ) = 111

----------
Test system: HL-60(TB) leukemia
assay.overview: NCI-60 one-dose screen, 48 h
condition.set: 10 µM unless noted
The panel holds about 83,000 compounds, 20% with a hit somewhere; the sample as a whole holds those more often. The source made the active and inactive calls. How the source made its calls: active means growth percent below 10; inactive means the rest.
Pick one: TRUE (active), FALSE (inactive)

Before answering, review these 5 worked examples.
compound	test.target	category
O=C(CCc1nnc2sc(OCc3ccccc3)nn12)c1nc2ccc([N+](=O)[O-])cc2[nH]1	HL-60(TB) leukemia	FALSE
N=C(N)c1ccc(-c2ccc(-c3ccc(Cl)cc3)o2)nc1	HL-60(TB) leukemia	FALSE
COc1cc(-c2nc3ccccc3[nH]2)ccc1OCc1nnc(-c2ccc(Br)cc2)o1	HL-60(TB) leukemia	FALSE
Cn1c(=O)c2c(ncn2CC(=O)Nc2ccc(S(N)(=O)=O)cc2)n(C)c1=O	HL-60(TB) leukemia	FALSE
CCCCCCCSc1ccc(C(=O)O)cc1	HL-60(TB) leukemia	FALSE

For "Cc1c[nH]c(=O)n(Cc2nnc(CCC(=O)c3nc4ccccc4[nH]3)o2)c1=O" , what call appears in the results of this test?
TRUE

For "COc1ccc2c(c1)C(=O)/C(=C/c1cccc(OCC(=O)Nc3nc4c(s3)CCCC4)c1)O2" , what call appears in the results of this test?
TRUE

For "NC(=O)c1ccc(N=C(N)N=C(N)N)cc1" , what call appears in the results of this test?
FALSE

----------
Tested on: HL-60(TB) leukemia
assay.overview: NCI-60 one-dose screen, 48 h
condition.set: 10 µM unless noted
The panel holds about 83,000 compounds, 20% with a hit somewhere; the sample as a whole holds those more often. Active and inactive are the calls of the source. Rule for the calls: active = growth percent below 10; inactive = the rest.
Pick one: y for active, n for inactive

For "CC(C)(C)n1nc(C2CC2)c(Br)c1NC(=O)c1ccccc1F" , what call appears in the results of this test?
n

For "Cc1cc(C)nc(SC2=C(Nc3cccc(Cl)c3)C(=O)N(Cc3ccccc3)C2=O)n1" , what call appears in the results of this test?
n

For "C[C@]12CCc3nc(Nc4cccc(O)c4)sc3C1=CC[C@@H]1[C@@H]2CC[C@]2(C)/C(=N\NC(N)=S)CC[C@@H]12" , what call appears in the results of this test?
n

For O=C(CC1(O)C(=O)Nc2ccc(F)cc21)c1ccc(C(=O)NCC2CCC3(CC2)OOC2(CCCCC2)OO3)cc1 (stereo not given) , what call appears in the results of this test?
y

For "O=[N+]([O-])c1ccc(N/N=C\c2ccc(O)cc2O)nc1" , what call appears in the results of this test?
y

----------
Tested on: HL-60(TB) leukemia
assay.overview: NCI-60 one-dose screen, 48 h
condition.set: 10 µM unless noted
Compounds without any hit were thinned out: in the full panel of roughly 83,000, 20% have a hit. Activity calls are given as the source filed them. The calls were made as follows: active = growth percent below 10; inactive = the rest.
Pick one: true = active, false = inactive

Before answering, review these 10 worked examples.
> print(dat)
                                    molecule  category
 1  O=c1oc2ccccc2cc1-c1nn(-c2ccccc2)cc1-c1nn[nH]n1     false
 2  O=C(Nc1cccc2[nH]c(C(F)(F)F)nc12)c1ccc(Br)cc1F     false
 3  CC(=O)OC1Oc2cc(C)c(C)cc2-c2oc(=O)c(-c3ccccc3)cc21 (stereo not given)      true
 4    Cc1ccc(CNc2ccc3nc(CCC(C)C)[nH]c3c2)cc1     false
 5  Cc1cc(N2CCN(C)CC2)nc(NC2CCCC(Nc3ccnc4cc(Cl)ccc34)C2)n1 (stereo not given)      true
 6  CCOc1ccc(-c2cc(C3(S(=O)(=O)c4ccc(C)cc4)CC=CC3)on2)cc1     false
 7  Fc1ccc(-c2nc(-c3ccc(-c4nc5ccc(F)cc5[nH]4)cc3)no2)cc1     false
 8  COc1cc(/C=C/C(=O)c2ccc(NC(=O)CSc3nnc(-c4cc(-c5ccccc5)nc5ccccc45)n3-c3ccccc3)cc2)cc(OC)c1OC     false
 9  COc1ccc(-c2nnc(SCC(=O)Nc3ccc(C(=O)/C=C/c4ccc(Cl)cc4)cc3)o2)cc1OC     false
10  O=C(Nc1ccc([N+](=O)[O-])cc1)C(=O)Nc1ccc([N+](=O)[O-])cc1     false

For COc1ccc(C2C3=C(COC3=O)N(CCO)c3cc4c(cc32)OCO4)cc1OC (stereo not given) , what call appears in the results of this test?
false

For "Cn1cc(C2=C(c3cccc4ccccc34)C(=O)NC2=O)c2cc(Br)ccc21" , what call appears in the results of this test?
false

For "S=C1SCN(Cc2ccccc2)CN1Cc1ccco1" , what call appears in the results of this test?
false

For CC(C)N=C1CCCC1C(=S)SSC(=S)C1CCCC1=NC(C)C (stereo not given) , what call appears in the results of this test?
false

For "COc1ccc(OC)c(/C=C2\COc3ccc(O)c(O)c3C2=O)c1" , what call appears in the results of this test?
true

For CCN(CC)C12CCCCC1(C)C(C#N)(C#N)C(C#N)=C(N)O2 (stereo not given) , what call appears in the results of this test?
false

For "C=C(C)[C@@H]1CC[C@]2(C=NCCCNCCCCNCCCN)CC[C@]3(C)[C@H](CC[C@@H]4[C@@]5(C)CCCNC(C)(C)[C@@H]5CC[C@]43C)[C@@H]12" , what call appears in the results of this test?
false

For "Cc1cn2c(/C=C3/C(=O)Nc4c3ccc3ccccc43)c(C(F)(F)F)nc2s1" , what call appears in the results of this test?
true

For "Cc1cc(C)n(-c2nnc3n2N=C(c2ccc(-c4ccccc4)cc2)CS3)n1" , what call appears in the results of this test?
true

For "CCOC(=O)c1ccc(Nc2sc(C(=O)c3cccc([N+](=O)[O-])c3)c(N)c2C#N)cc1" , what call appears in the results of this test?
true

Value source: PubChem BioAssay (NCI)
